ASSAY_DETAILS: Metabolic stability in mouse liver microsomes assessed as intrinsic clearance at 0.1 uM measured per gram protein measured upto 60 mins in presence of NADPH by LC-MS/MS analysis
Type: ADME, Microsome
CONDITION_PARAMETERS: 1 h
Please provide measured CLH for the entries that follow.
The number alone won't do; follow it with the unit.

>  <MOLECULE>
O=C(O)c1cc(-c2cccc(Cl)c2-c2ccc3c(c2)CCO3)ccc1C(F)(F)F

>  <CLH>
3.94 mL/min/g

$$$$

Please turn your attention to the following entry.
Q) Name the recorded CLH of the molecule listed here: O=C(O)C1CCc2ccc(-c3cccc(Cl)c3-c3ccc4c(c3)CCO4)cc21 (configuration not stated)
A) 39.4 mL/min/g

====

ASSAY_DETAILS: Tmax in ICR mouse at 25 mg/kg, po measured upto 24 hrs by LC-MS/MS analysis
Format: ADME, organism-based
CONDITION_PARAMETERS: in vivo
MEASURED_QUANTITY: Tmax (min)
Numbers only, in min.

Q) Name the recorded Tmax of the compound listed here: O=C(O)c1cc(-c2cccc(Cl)c2-c2ccc3c(c2)CCO3)ccc1C(F)(F)F
A) 15

====

ASSAY_DETAILS: MRT in ICR mouse at 25 mg/kg, po measured upto 24 hrs by LC-MS/MS analysis
Type: ADME, organism-based
CONDITION_PARAMETERS: in vivo
MEASURED_QUANTITY: MRT (h)
Numbers only, in h.

Q) Name the recorded MRT of the compound listed here: O=C(O)c1cc(-c2cccc(Cl)c2-c2ccc3c(c2)CCO3)ccc1C(F)(F)F
A) 5.3

====

ASSAY_DETAILS: Cmax in ICR mouse at 25 mg/kg, po measured upto 24 hrs by LC-MS/MS analysis
Assay type: ADME, organism-based
Design: dose 25 mg/kg, time < 24 hrs, route po
CONDITION_PARAMETERS: in vivo
MEASURED_QUANTITY: Cmax (ng/mL)
Answers are plain numbers, in ng/mL.

Q) Name the recorded Cmax of the compound listed here: O=C(O)c1cc(-c2cccc(Cl)c2-c2ccc3c(c2)CCO3)ccc1C(F)(F)F
A) 15500

====

EXPERIMENTAL_SYSTEM: UniProt P15090
Sequence (P15090 whole entry): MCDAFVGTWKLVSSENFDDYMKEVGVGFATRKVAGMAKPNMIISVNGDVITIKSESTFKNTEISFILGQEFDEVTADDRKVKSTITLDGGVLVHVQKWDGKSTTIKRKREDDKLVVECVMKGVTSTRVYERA
ASSAY_DETAILS: Displacement of 1,8-ANS from FABP4 (unknown origin) assessed as inhibition constant by fluorescence based analysis
MEASURED_QUANTITY: pKi
Answers are plain numbers, as −log10 of the molar value.

>  <COMPOUND>
O=C(O)c1cc(-c2cccc(Cl)c2-c2ccc3c(c2)CCO3)ccc1C(F)(F)F

>  <NUMERIC_VALUE>
6.29

$$$$
>  <COMPOUND>
O=C(O)C1CCc2ccc(-c3cccc(Cl)c3-c3ccc4ocnc4c3)cc21 (stereo unspecified)

>  <NUMERIC_VALUE>
6.13

$$$$
>  <COMPOUND>
O=C(O)C1CCc2ccc(-c3cccc(Cl)c3OCC3CCC3)cc21 (stereo unspecified)

>  <NUMERIC_VALUE>
6.12

$$$$

// for each compound in input: emit pKi
1. O=C(O)c1cc(-c2cccc(Cl)c2-c2ccc3c(c2)OCO3)ccc1C(F)(F)F
2. CC(C(=O)O)c1cccc(-c2cccc(Cl)c2-c2ccc3c(c2)CCO3)c1 (stereo unspecified)
3. O=C(O)c1cc(-c2cccc(Cl)c2-c2ccc3c(c2)CCO3)ccc1O

A)
1. 5.77
2. 5.83
3. 6.55
